The origin of these recorded values is patent US6989451B2.

pIC50: −log10 of the molar value.
Record: pIC50 reported on GST-hMEK1 and mERK2 (Homo sapiens).
Sequence (P63085 2-358): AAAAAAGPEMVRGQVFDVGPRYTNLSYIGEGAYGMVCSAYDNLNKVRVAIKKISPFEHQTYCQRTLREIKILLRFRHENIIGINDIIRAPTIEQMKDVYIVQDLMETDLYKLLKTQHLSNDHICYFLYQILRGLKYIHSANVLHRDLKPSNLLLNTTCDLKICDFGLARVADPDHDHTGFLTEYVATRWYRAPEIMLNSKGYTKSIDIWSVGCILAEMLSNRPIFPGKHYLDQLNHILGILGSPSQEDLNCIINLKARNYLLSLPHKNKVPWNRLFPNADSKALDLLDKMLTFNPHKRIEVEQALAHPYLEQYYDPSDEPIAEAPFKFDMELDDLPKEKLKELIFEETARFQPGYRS
Sequence (Q02750 whole entry): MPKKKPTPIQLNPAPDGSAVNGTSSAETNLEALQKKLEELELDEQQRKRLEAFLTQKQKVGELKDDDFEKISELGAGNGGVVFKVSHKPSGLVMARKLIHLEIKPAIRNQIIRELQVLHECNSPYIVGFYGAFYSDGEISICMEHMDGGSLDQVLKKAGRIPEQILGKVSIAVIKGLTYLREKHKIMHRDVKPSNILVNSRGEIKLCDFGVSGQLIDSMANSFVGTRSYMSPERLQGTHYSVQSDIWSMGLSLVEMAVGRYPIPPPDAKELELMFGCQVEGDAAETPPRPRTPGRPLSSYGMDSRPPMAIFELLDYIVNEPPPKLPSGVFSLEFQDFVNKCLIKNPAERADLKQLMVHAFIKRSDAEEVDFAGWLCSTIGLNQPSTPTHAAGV

Please review the entries below; each comes with its answer.
compound=Cc1ccc(Nc2snc(O)c2C#N)cc1 system_under_test="GST-hMEK1 and mERK2 (Homo sapiens)" observed_result="4.00 to 5.00"
compound=N#Cc1c(O)nsc1Nc1ccc(N)cc1 system_under_test="GST-hMEK1 and mERK2 (Homo sapiens)" observed_result="> 5.00"
compound=N#Cc1c(O)nsc1N1CCCCC1 system_under_test="GST-hMEK1 and mERK2 (Homo sapiens)" observed_result="> 5.00"
compound=CC(C)c1cccc(C(C)C)c1Nc1snc(O)c1C#N system_under_test="GST-hMEK1 and mERK2 (Homo sapiens)" observed_result="4.00 to 5.00"
compound=CN(C)c1ccc2ccccc2c1Nc1snc(O)c1C#N system_under_test="GST-hMEK1 and mERK2 (Homo sapiens)" observed_result="> 5.00"
compound=N#Cc1c(O)nsc1NCCCN1CCOCC1 system_under_test="GST-hMEK1 and mERK2 (Homo sapiens)" observed_result="> 5.00"
compound=N#Cc1c(O)nsc1Nc1cccc(Cl)c1 system_under_test="GST-hMEK1 and mERK2 (Homo sapiens)" observed_result="4.00 to 5.00"
compound="N#Cc1c(O)nsc1NC1CCc2ccccc21 (centres unmarked)" system_under_test="GST-hMEK1 and mERK2 (Homo sapiens)" observed_result="> 5.00"

Value of pIC50 reported for the compound CC(C)c1ccc(Nc2snc(O)c2C#N)cc1 is > 5.00

// field: pIC50; key: N#Cc1c(O)nsc1NCCc1ccc(O)cc1 ; value = > 5.00

The recorded pIC50 for N#Cc1c(O)nsc1Nc1ccccc1F is > 5.00
